# binding signal values compiled below
TESTED TARGET: OsSMF1 (Oryza sativa, UniProt Q6ZLB0 1-436)
Sequence: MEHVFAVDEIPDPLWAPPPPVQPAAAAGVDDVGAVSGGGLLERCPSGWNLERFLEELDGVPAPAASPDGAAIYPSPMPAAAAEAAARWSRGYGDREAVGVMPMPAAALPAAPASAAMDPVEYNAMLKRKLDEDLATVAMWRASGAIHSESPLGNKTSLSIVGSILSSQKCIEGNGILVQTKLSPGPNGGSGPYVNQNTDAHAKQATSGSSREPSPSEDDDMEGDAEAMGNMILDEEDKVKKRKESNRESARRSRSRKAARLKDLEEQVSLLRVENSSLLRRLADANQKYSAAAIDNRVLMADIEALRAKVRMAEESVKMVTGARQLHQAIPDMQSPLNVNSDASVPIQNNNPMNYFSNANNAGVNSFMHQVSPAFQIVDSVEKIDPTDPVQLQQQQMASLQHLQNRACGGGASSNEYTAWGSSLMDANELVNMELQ
TEST METHOD NOTES: protein-binding microarray (RPBM); PBS, 2% BSA, 51.3 ng/ul salmon testes DNA, 50 uM zinc acetate, 200 nM TF, 25 C, 1 h; high values mean tight binding
REPORTED CONDITIONS: protein: recombinant; tags: N-terminal polyhistidine and DsRed monomer fusion (pET32a); chain copies: 2; label: CyDye5-dUTP incorporated in the synthesized complementary strand; 3' TTTTT single-stranded linker to array surface; dsDNA, one strand shown
Whole data set: some 39,000 sequences, median “fluorescence intensity (a.u.)” near 4,300, cut for the highest 2% near 39,000. Only a selection was taken, and the highest values are over-represented in it overall.
MEASURED PROPERTY: binding signal

{"columns": ["SEQ", "TESTED TARGET", "MEASURED PROPERTY", "RECORDED VALUE"],
 "data": [
  ["CGCGGCACGGGGAGACGACACGTCGGATGGTTGGCAGGAGCGGAGTCACCTAGTGCAG", "OsSMF1 (Oryza sativa, UniProt Q6ZLB0 1-436)", "binding signal", "16400 fluorescence intensity (a.u.)"],
  ["ACCACCACCACCACCATCGCACTCCCAACTCCCAAGCCGCCGGAGTCACCTAGTGCAG", "OsSMF1 (Oryza sativa, UniProt Q6ZLB0 1-436)", "binding signal", "3760 fluorescence intensity (a.u.)"],
  ["GTGTCTGCCTCCGCGTCCGCTTCGTCACGGCGGTGTCGGTCGGAGTCACCTAGTGCAG", "OsSMF1 (Oryza sativa, UniProt Q6ZLB0 1-436)", "binding signal", "5900 fluorescence intensity (a.u.)"],
  ["GGAGGAGGAGGAGGAGGGAGATGGTGGCGAGCTGACTTGGCGGAGTCACCTAGTGCAG", "OsSMF1 (Oryza sativa, UniProt Q6ZLB0 1-436)", "binding signal", "4090 fluorescence intensity (a.u.)"],
  ["TCACACCCCATCTATGTTGTCGCTCCACATAGGCTAGGCCCGGAGTCACCTAGTGCAG", "OsSMF1 (Oryza sativa, UniProt Q6ZLB0 1-436)", "binding signal", "3260 fluorescence intensity (a.u.)"],
  ["GCATGCTCTCCGTGCCGTATGCGCTGTCGTAGGGCAGGTGCGGAGTCACCTAGTGCAG", "OsSMF1 (Oryza sativa, UniProt Q6ZLB0 1-436)", "binding signal", "3760 fluorescence intensity (a.u.)"],
  ["AATATCATCCGTGTCACTACCTAGCTCCTGCATGCTCTGCCGGAGTCACCTAGTGCAG", "OsSMF1 (Oryza sativa, UniProt Q6ZLB0 1-436)", "binding signal", "4560 fluorescence intensity (a.u.)"],
  ["ACACTAATTTCAAGGTTGCTCGTGAGTCATAATCCTGACGCGGAGTCACCTAGTGCAG", "OsSMF1 (Oryza sativa, UniProt Q6ZLB0 1-436)", "binding signal", "7720 fluorescence intensity (a.u.)"],
  ["TTGCAGCATCACCTGGCGAGGCGTAGCTAGGAGATGCAGACGGAGTCACCTAGTGCAG", "OsSMF1 (Oryza sativa, UniProt Q6ZLB0 1-436)", "binding signal", "40100 fluorescence intensity (a.u.)"],
  ["GTGATCTTTCCACATACAGAGAGAGAGAGAGCTTGGGATTCGGAGTCACCTAGTGCAG", "OsSMF1 (Oryza sativa, UniProt Q6ZLB0 1-436)", "binding signal", "40900 fluorescence intensity (a.u.)"],
  ["GCGCCCTCCTCCTGCCACGTCGGTTCGCGTGCGCCACGGTCGGAGTCACCTAGTGCAG", "OsSMF1 (Oryza sativa, UniProt Q6ZLB0 1-436)", "binding signal", "19500 fluorescence intensity (a.u.)"],
  ["GACTTGATTACCACGCGTATACTATATAGGACAAAATTGCCGGAGTCACCTAGTGCAG", "OsSMF1 (Oryza sativa, UniProt Q6ZLB0 1-436)", "binding signal", "3190 fluorescence intensity (a.u.)"],
  ["TTGTGATGTCCACGTATTCAGGATTAGACCACAGGCCCGGCGGAGTCACCTAGTGCAG", "OsSMF1 (Oryza sativa, UniProt Q6ZLB0 1-436)", "binding signal", "8170 fluorescence intensity (a.u.)"],
  ["AAGAAAATCTCCTGTCTCAGTCTCCTCCGCTCCTTGCGCCCGGAGTCACCTAGTGCAG", "OsSMF1 (Oryza sativa, UniProt Q6ZLB0 1-436)", "binding signal", "54400 fluorescence intensity (a.u.)"],
  ["GCTCCTCACCCGCCGTGAACCCAACCCACATCCGCTGACGCGGAGTCACCTAGTGCAG", "OsSMF1 (Oryza sativa, UniProt Q6ZLB0 1-436)", "binding signal", "3300 fluorescence intensity (a.u.)"],
  ["GATAACCGTAACTAACCGGCTTGGTCAGCAAGCCAAAGTGCGGAGTCACCTAGTGCAG", "OsSMF1 (Oryza sativa, UniProt Q6ZLB0 1-436)", "binding signal", "6310 fluorescence intensity (a.u.)"],
  ["TGCTTCCCCTGTTCTGATCACCTGCGCACACGGGTGCTCACGGAGTCACCTAGTGCAG", "OsSMF1 (Oryza sativa, UniProt Q6ZLB0 1-436)", "binding signal", "49200 fluorescence intensity (a.u.)"],
  ["AAAGCCTCGCCGCCATCTCTCTCCACCACCCAAAATTTCTCGGAGTCACCTAGTGCAG", "OsSMF1 (Oryza sativa, UniProt Q6ZLB0 1-436)", "binding signal", "35600 fluorescence intensity (a.u.)"],
  ["ATTCCATATTTCCATTCCACACGTCTTGAGAGCTAATCTTCGGAGTCACCTAGTGCAG", "OsSMF1 (Oryza sativa, UniProt Q6ZLB0 1-436)", "binding signal", "3400 fluorescence intensity (a.u.)"],
  ["ACCAAACATTACCTAATGCAATCGAACTATCGAAGACATGCGGAGTCACCTAGTGCAG", "OsSMF1 (Oryza sativa, UniProt Q6ZLB0 1-436)", "binding signal", "3700 fluorescence intensity (a.u.)"],
  ["ACGGGCTCGTCGAGCTGCTCTGGTGCAATGGCCACGTCATCGGAGTCACCTAGTGCAG", "OsSMF1 (Oryza sativa, UniProt Q6ZLB0 1-436)", "binding signal", "28400 fluorescence intensity (a.u.)"],
  ["ACCTGCCCAACCCCAACCCCAACCCTCTCCTCTCCGCCCACGGAGTCACCTAGTGCAG", "OsSMF1 (Oryza sativa, UniProt Q6ZLB0 1-436)", "binding signal", "3710 fluorescence intensity (a.u.)"],
  ["TCCCCGTCTTTTCCTTCCGCCTCACCAACCTCGTCTCGTCCGGAGTCACCTAGTGCAG", "OsSMF1 (Oryza sativa, UniProt Q6ZLB0 1-436)", "binding signal", "3330 fluorescence intensity (a.u.)"],
  ["TTATTCATACATGTCACTGCCAGGCTGCTGTCTACTTCTTCGGAGTCACCTAGTGCAG", "OsSMF1 (Oryza sativa, UniProt Q6ZLB0 1-436)", "binding signal", "4950 fluorescence intensity (a.u.)"],
  ["GTGCTGTTCCTGCATGTGCATGCATGTATGAGTACGTACGCGGAGTCACCTAGTGCAG", "OsSMF1 (Oryza sativa, UniProt Q6ZLB0 1-436)", "binding signal", "3910 fluorescence intensity (a.u.)"],
  ["TTCTCTACCAGCGGCAGCGGCGGCTGGTAGGGAGGAGGAGCGGAGTCACCTAGTGCAG", "OsSMF1 (Oryza sativa, UniProt Q6ZLB0 1-436)", "binding signal", "4860 fluorescence intensity (a.u.)"],
  ["GGCTGACGGCTGGTGAGAAGCCACGTCAGCATTTAATTCCCGGAGTCACCTAGTGCAG", "OsSMF1 (Oryza sativa, UniProt Q6ZLB0 1-436)", "binding signal", "13100 fluorescence intensity (a.u.)"],
  ["CTATTTGTGTCTTGTGTACTTCAACGTCTTCCTCTTATGACGGAGTCACCTAGTGCAG", "OsSMF1 (Oryza sativa, UniProt Q6ZLB0 1-436)", "binding signal", "3680 fluorescence intensity (a.u.)"],
  ["CAAAAGCCTCGCCGCGCACCACCACCCAGCTCTCTCCACTCGGAGTCACCTAGTGCAG", "OsSMF1 (Oryza sativa, UniProt Q6ZLB0 1-436)", "binding signal", "3640 fluorescence intensity (a.u.)"],
  ["TTTGGCATACCTGGAGCAGATCAGGCAGCACATGGCGAGGCGGAGTCACCTAGTGCAG", "OsSMF1 (Oryza sativa, UniProt Q6ZLB0 1-436)", "binding signal", "25600 fluorescence intensity (a.u.)"],
  ["GCTCCTCCCGTGCCGCCGCCGTCTCGCGCCAGTGCGTCTCCGGAGTCACCTAGTGCAG", "OsSMF1 (Oryza sativa, UniProt Q6ZLB0 1-436)", "binding signal", "3330 fluorescence intensity (a.u.)"],
  ["CCCCTACTATTTTCTAGGCTAGGAAGCGTGCGATCTTTTCCGGAGTCACCTAGTGCAG", "OsSMF1 (Oryza sativa, UniProt Q6ZLB0 1-436)", "binding signal", "3240 fluorescence intensity (a.u.)"],
  ["GGCTGCTCATTGTCGTCTCATCTGGGCTTTTCAATGGGCTCGGAGTCACCTAGTGCAG", "OsSMF1 (Oryza sativa, UniProt Q6ZLB0 1-436)", "binding signal", "53700 fluorescence intensity (a.u.)"],
  ["GGCTCCGTCTTATCCTAACAACGCCAAGGGGCCACGTATGCGGAGTCACCTAGTGCAG", "OsSMF1 (Oryza sativa, UniProt Q6ZLB0 1-436)", "binding signal", "7210 fluorescence intensity (a.u.)"],
  ["TGTGTGCGTGTGTTGTGACTTATGATGTGTTTCTTAAGAACGGAGTCACCTAGTGCAG", "OsSMF1 (Oryza sativa, UniProt Q6ZLB0 1-436)", "binding signal", "4170 fluorescence intensity (a.u.)"],
  ["CAGGCTACAGGGCATTTGTGTCATTTTGCAAGAAGGCATACGGAGTCACCTAGTGCAG", "OsSMF1 (Oryza sativa, UniProt Q6ZLB0 1-436)", "binding signal", "3380 fluorescence intensity (a.u.)"],
  ["CACGAGTGCCTCTCCGTCATGCTCCACGACAGCTGCAGCCCGGAGTCACCTAGTGCAG", "OsSMF1 (Oryza sativa, UniProt Q6ZLB0 1-436)", "binding signal", "4760 fluorescence intensity (a.u.)"]
]}
